# TEST_DESCRIPTION: yeast display, Sf9 membrane polyspecificity reagent, FACS + sequencing; frameworks hold sequencing errors
MEASURED_ATTRIBUTE: polyreactivity (PSR sort gate)

1) QVQLVESGGGLVQAGGSLRLSCAASGRIFSGYVKGWYRQAPGKERELVASISRGGSTNYADSVKGRFTISRDNAKNTVYLQMNSLKPEDTAVYYCNKRWFAPPPYSYVRSYDYWGQGTQVTVSS low polyreactivity
2) QVQLVESGGGLVQAGGSLRLSCSASGSIIYANAMGWYRPAPGKEREFVATITDSGAITYYADSVKGRFTISRDNAKNTVYLQMNSLKPEDTAVYYCNKDLVVYYVPTHDYDYWGQGTQVTVSS low polyreactivity

====

# TEST_DESCRIPTION: yeast display, Sf9 membrane polyspecificity reagent, FACS + sequencing; frameworks hold sequencing errors
MEASURED_ATTRIBUTE: polyreactivity (PSR sort gate)

1) QVQIVESGGGLVQAGGSLRLSCAASGRTFRGNVMGWSRQAPGKEREFVAAITRSGSNTYYADSVKGRFTISRDNAKNTVYLQMNSLKPEDTAVYYCAKSVLLGYKRHDSWGQGTQVTVSS high polyreactivity
2) QVQLVESGGGLVQAGGSLRLSCAASGLIFRYNAMGWSRQAPGKERELVAAISRSGGTTYYADSVKGRFTISRDNAKNTVYLQMNSLKPEDTAVYYCATRISQSYYNYGYWGQGTQVTVSS high polyreactivity

====

# TEST_DESCRIPTION: yeast display, Sf9 membrane polyspecificity reagent, FACS + sequencing; frameworks hold sequencing errors
MEASURED_ATTRIBUTE: polyreactivity (PSR sort gate)

1) QVQLVESGGGLVQAGGSLRLSCAASGSIFLTYTMGWYRQATGKERELVAAITDSDGSTSYADSVKGRFTISRDNAKNTVYLQMNSLKPEDTAVYYCAVEGYWYAGWYAMDYWGQGTQVTVSS low polyreactivity
2) QVQLVESGGGLVQAGGSLRLSCAASGSIFGGYAMGWYRQAPGKERELVAGITYSGDSTYYADSVKGRFTISRDNAKNTVYLQMNSLKPEDTAVYYCNADQRVDHDDFDYWGQGTQVTVSS low polyreactivity
3) QVQLVESGGALVHAGGSLRLSCAASGSILKTYAMGWYIQAPGKEREFVAAMSSGGSTYYADSVKGRFTISRDNAKNTVYLQMNSLKPEDTAVYYCAADPWGDFVSFASYYYWGQGTQVTVSS low polyreactivity
4) QVQLVESGGGLVQAGGRLRLSCAASGRTFPWNVMGWYRQAPGKERELVAAISWSSGRTYYADSVKGRFTISRDNAKNTVYLQMNSLKPDDTAVYYCAKRYRPYRGNSGNDYWGQGTQVTVSS high polyreactivity

Would you kindly look at the next entry?
Determine its reported polyreactivity (PSR sort gate): QVQLVESGGGLVQAGGSLRLSCAASGRIFSVYAMGWYRQAPGKEREFVAAITKGGVGTYYADSVKGRFTISRDNAKNTVYLQMNSLKPEDTAVYYGAARHYYGADRYYSWGQGTQVTVSS high polyreactivity

====

# TEST_DESCRIPTION: yeast display, Sf9 membrane polyspecificity reagent, FACS + sequencing; frameworks hold sequencing errors
MEASURED_ATTRIBUTE: polyreactivity (PSR sort gate)

Use the examples below as a reference point.
1) QVQLVESGGGLVQAGGSLRLSCAASGSILRKYAMGWYRQAPGKERELVAAISGSGGRTHYADSVKGRFTISRDNAKNTVYLQMNSLKPEDTAVYYCARRIKLGQRQGGYYWGQGTQVTVSS high polyreactivity
2) QVQLVESGGGLVQAGGSLRLSSAASGFIFSYNAMRWYRQARGKERELVAAITYSDGGTYADSVKARFTISRDNAKNTVDLQMHSLKPEDTAVYYCARRQVLYSRDFEYDYWGQGTLVTVSS low polyreactivity
3) QVQLVESGGGLVQAGGSLRLSCAASGRIFYWYVMGWYRQAPGKERELVASISWSGGSTYYADSVKGRFTISRDNAKNTVYLQMNSLKPEDTAVYYCNAGSVYTVSLPGHPYDYWGQGTQVTVSS low polyreactivity
4) QVQLVESGGGLVQAGGSLRLSCAASGIILHYYAMGSYRQAPGKERELVAAISARGGRTYYADSVKGRFTISRDNAKNTVYLQMNSLKPEDTAVYYCARYLRRSSPSPGYGYWGQGTQVTVSS high polyreactivity
5) QVQLVESGGGLVQAGGSLRLSCAASGRIFQFYAMGWYRQAPGKERELVAAITTGGSTKYADSVKGRFTISRDNAKNTVYLQMNSLKPEDTAVYYCAARAHYYVYRPGIRRYDYWGQGTQVTVSS high polyreactivity
6) QVQLVDSGGGLVQAGGSLRLSCAASGSIFRYYAMGWYRQAPGKEREFVAAINTNDAGTYYADSVKGRFTISRDNAKNTVYLQMNSLKPEDTAVYYCAADTGYPFWYDYWGQGTQVTVSS high polyreactivity
7) QVQLVESGGGLVQAGGSLRLSCAASGNIFFRYTMGWYRQAPGKERELVAASSASGGSTYYADSVKGRFTISRDNAKNTVYLQMNSLKPEDTAVYYCAARILHYTSEYYYWGQGTQVTVSA high polyreactivity
8) QVQLQESGGGLEQAGGSLRLTCAASGNISVTGFMGWYRQEPGKEREIVASIGIGGTTYYADSVKGRFYISRDNAKNTVYLQMNSLKPEDTAVYYCADRYLYYAYSYWCQGTQVTVSS low polyreactivity

Determine its reported polyreactivity (PSR sort gate): QVQLVESGGGLVQAGGSLRLSCAASGSTFVQYAMGWYRQAPGKERELVAAITSGGRTNYADSVNGRFTISRDNAKNTVYLQMNSLKPEDTAVYYCAARYGSNSPRRYEYYYWGQGTQVTVSS low polyreactivity

Determine its reported polyreactivity (PSR sort gate): QVQLVESGGGLVQAGGSLRLSCAASGGTFHYYAMGWYRQAPGKERELVAAINRSGDSTYYADSVKGRFTISRDNAKNTVYLQMNSLKPEDTAVYYCAVSYYGADGNPFPHDYWGQGTQVTVSS low polyreactivity

Determine its reported polyreactivity (PSR sort gate): QVQLVESRGGLVQAGGSLRISCAASGNIFLDYVMGWSRQAPGKERELVAAINSGGSTYYADSVKGRFTISSDNAKNTVYLQMNSLKPEDTAVYYCAADDYYKFDYWGQGTQVTVSS low polyreactivity

Determine its reported polyreactivity (PSR sort gate): QVQLVESGGGLVQAGGSLRLSCAASGRTFGGNSMGWYRQAPGKERELVAAISGSGGSTYYADSVKGRFTISRDNAKNTVYLQMNSLKPEDTAVYYCAKASRKGWRYDSWGQGTQVTVSS high polyreactivity

Determine its reported polyreactivity (PSR sort gate): KVQLVESGGGLVQAGGSLRLSSADSGRIYVGYAIVWYRQEPGKEMEMVAGISRSGDSTYYADSVKGRFTISRDNAKNTVYLQMNSLKPEDTAVYYCAARINYWGYYYWGQGSQVTVSS high polyreactivity

Determine its reported polyreactivity (PSR sort gate): QVQLVESGGALVQAGGSLRLSCAASGSTFLNYAMRGYRQATGKARELVAGINSGGSTNYADSVKGRFTISRDNAKNTVYLQMNSLKPEDTAVYYCAGDRVGNEYDYWGQGTQVTVSS low polyreactivity

Determine its reported polyreactivity (PSR sort gate): QVQLVESGGGLVQAGGSLRLSCAASGRTFYPNVMGWYRQAPGKERELVAAISRGGSTYYADSVKGRFTISRDNAKNTVYLQMNSLKPEDTAVYYCAATHYGHSISYWFDYWGQGTQVTVSS high polyreactivity

Determine its reported polyreactivity (PSR sort gate): QVQLVESGGGLVQAGGSLRLSCSAYGLILRTYGMGWYRQAPGKERELVAVISSGGSTYYADSVKGRFTISRDNEKNTVYLQMNSLKPEDTAVYYCAVRSSWYEGDYWGQGTQVTVSS low polyreactivity

Determine its reported polyreactivity (PSR sort gate): QVQLVESVGGLVQAGGSLRLSCAASGSILQHYAMGWYRQAPGKETELVASISWTGGSTYYADSVKGRFTISRDNAKNTVYLQMNCLKPEDTAVYYCAARRYRYYSRGSWGQGTQVTVSS high polyreactivity

Determine its reported polyreactivity (PSR sort gate): QVQLVESGGGLVQAGGSLRLSCAASGSTFTKYAMGWYRKAPGKERELVAAITYSGGRTYYADSVKGRFTISRDNAKNTVYLQMNSLKPEDTAVYYCAAATYAGKPMEYWGQGTQVTVSS high polyreactivity
